Reference source for all entries: patent US8461328B2

- assay_system: JAK2 (Homo sapiens, UniProt O60674)
- Construct: made in house; host or cells: SF9 insect cells (baculovirus)
- Sequence (O60674 812-1132): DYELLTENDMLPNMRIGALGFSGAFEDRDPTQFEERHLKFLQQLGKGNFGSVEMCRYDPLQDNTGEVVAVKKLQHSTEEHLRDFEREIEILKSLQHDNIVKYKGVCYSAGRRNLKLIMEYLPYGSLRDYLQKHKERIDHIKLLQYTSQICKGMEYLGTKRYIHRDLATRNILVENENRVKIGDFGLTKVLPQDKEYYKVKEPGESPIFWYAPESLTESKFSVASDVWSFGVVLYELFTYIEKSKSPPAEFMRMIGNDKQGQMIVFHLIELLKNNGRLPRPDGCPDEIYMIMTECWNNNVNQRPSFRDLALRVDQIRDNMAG
- run_description: JAK2 inhibition (Table 4)
- Assay type: biochemical
- test_settings: read-out: JAK2 Ki
Ki less than 20 nM is label 1; Ki greater than or equal to 20 nM is label 0.

Solved cases (5 shown):
# compound, discrete_label
measured = [
    ("O=S(=O)(c1ccccc1)N1CCC(n2cnc3cnc4[nH]ccc4c32)CC1 [Example 55]", "label 1"),
    ("CC(O)c1nc2cnc3[nH]ccc3c2n1C1CC2CCC1O2 (single isomer, unassigned) [Example 937]", "label 0"),
    ("CN1CCC[C@@H]1C(=O)N1CCC(n2cnc3cnc4[nH]ccc4c32)CC1 [Example 252]", "label 0"),
    ("CS(=O)(=O)NCc1nc2cnc3[nH]ccc3c2n1C1CC2CCC1O2 (single isomer, unassigned) [Example 850]", "label 0"),
    ("CS(=O)(=O)N1CCC(n2cnc3cnc4[nH]ccc4c32)CC1 [Example 54]", "label 1"),
]

input: In the record for Cc1nc2cnc3[nH]ccc3c2n1C1CCN(CC(F)F)CC1 [Example 762] , is Ki less than 20 nM?
output: label 1

input: Also need CS(=O)(=O)Nc1ccc(N2CCC(n3cnc4cnc5[nH]ccc5c43)CC2)nc1 [Example 211] , thanks.
output: label 0

input: Also need CC1CN(S(C)(=O)=O)CCC1n1cnc2cnc3[nH]ccc3c21 (racemic) [Example 345] , thanks.
output: label 1

input: Also need CC(CC#N)N1CCC(n2c(CS(C)(=O)=O)nc3cnc4[nH]ccc4c32)CC1 (racemic) [Example 396] , thanks.
output: label 0

input: Also need Cc1nn(C)c(C)c1CN1CCC(n2c([C@@H](C)O)nc3cnc4[nH]ccc4c32)CC1 [Example 831] , thanks.
output: label 0

input: Also need C[C@@H](O)c1nc2cnc3[nH]ccc3c2n1C1CCN(Cc2ccnn2C)CC1 [Example 819] , thanks.
output: label 0

input: Also need C[C@@H](O)c1nc2cnc3[nH]ccc3c2n1C1CCC(NCC(F)(F)F)CC1 (stereo partly shown) [Example 1009] , thanks.
output: label 0

input: Also need Cc1nc2cnc3[nH]ccc3c2n1C1(C)CCN(S(C)(=O)=O)CC1 [Example 580] , thanks.
output: label 1

input: Also need C[C@@H](O)c1nc2cnc3[nH]ccc3c2n1C1CCC(CS(C)(=O)=O)CC1 (mixture of isomers) [Example 649] , thanks.
output: label 0

input: Also need c1ccc(CN2CCC(n3nnc4cnc5[nH]ccc5c43)CC2)cc1 [Example 66] , thanks.
output: label 1
